# Tested on: HCT116
# Assay Overview: AC50 cell viability (CellTiter-Glo); higher = less potent
# Details: 48 h
Where a name gives a salt, the structure may show the parent alone.

{"columns": ["Compound", "AC50 cell viability"],
 "data": [
  ["C=CC(=O)Nc1ccc2ncnc(Nc3ccc(OCc4cccc(F)c4)c(Cl)c3)c2c1", "11.8 µM"],
  ["CCCN(CCC)C(=O)C\\1=C\\C2=CC=C(C=C2\\N=C(N)/C1)C3=CC=C(C=C3)C(=O)N4CCCC4", "18.6 µM"],
  ["COc1cc2c(cc1O)CC[C@@H]1[C@@H]2CC[C@]2(C)[C@@H](O)CC[C@@H]12", "2.35 µM"],
  ["CC/C(=C(\\c1ccccc1)c1ccc(OCCN(C)C)cc1)c1ccccc1", "15.2 µM"],
  ["COc1cc2ncnc(Nc3ccc(F)c(Cl)c3)c2cc1NC(=O)/C=C/CN1CCCCC1", "8.33 µM"],
  ["CNC(=O)c1cccc2cc(Oc3ccnc4cc(OCC5(N)CC5)c(OC)cc34)ccc12", "14.8 µM"],
  ["COc1ccc(-c2c(-c3ccc(O)cc3O)n[nH]c2C)cc1", "20.9 µM"],
  ["Cc1ccc([S+](=O)([O-])Nc2cc(C(F)(F)F)ccc2C(=O)Nc2nc(-c3ccccc3)cs2)cc1", "4.17 µM"],
  ["CC(C)C[C@H](NC(=O)CNC(=O)c1cc(Cl)ccc1Cl)B1OC(=O)CC(CC(=O)O)(C(=O)O)O1 (stereo not given in full) [Ixazomib citrate]", "0.148 µM"],
  ["CN(C)CCCOc1ccc(-c2ccc3ncc4c(c3c2)n(C2CCOCC2)c(=O)n4C)cn1", "7.23 µM"],
  ["C[C@@H]1CC(=O)Nc2cccc(-c3cnn(C(C)(C)C)c3)c2N1", "16.6 µM"],
  ["COc1cc(Oc2ccnc3cc(OC)c(OC)cc23)ccc1NC(=O)NC(C)c1nccs1 (stereo not given)", "20.9 µM"],
  ["CCOC\\1=C(/C(=O)NC2=CC=C(OC3=C(Cl)C(=NC=C3)N)C(=C2)F)C(=O)N(\\C=C1)C4=CC=C(F)C=C4", "18.6 µM"],
  ["COc1cc2c(NC3CCN(C4CCCCC4)CC3)nc(N3CCCN(C(C)C)CC3)nc2cc1OCCCN1CCCCC1", "2.95 µM"],
  ["CC(C)NC[C@@H](C(=O)N1CCN(c2ncnc3c2[C@H](C)C[C@H]3O)CC1)c1ccc(Cl)cc1", "13.2 µM"]
]}

* * *

# Tested on: HCT116
# Assay Overview: efficacy (fitted maximal change in viability relative to DMSO control); higher = less cytotoxic (negative = loss of viability)
# Details: 48 h
Where a name gives a salt, the structure may show the parent alone.
Recorded efficacy determines the label; the label ranges are low bin = under -80%, mid bin = from -80% up to -30%, high bin = -30% and over

{"columns": ["Compound", "Group"],
 "data": [
  ["NC(=O)c1ccc2[nH]c(-c3ccc(Oc4ccc(Cl)cc4)cc3)nc2c1 [BML-277]", "mid bin"],
  ["CC[C@H](CC#N)OC(=O)N[C@@H](C)c1cccc(NC(=O)Nc2ccc(-c3cnco3)c(OC)c2)c1 [AVN944]", "mid bin"],
  ["CNC(=O)c1ccc(Nc2ncc(C(F)(F)F)c(NCc3nccnc3N(C)[S+](C)(=O)[O-])n2)cc1 [Defactinib]", "mid bin"],
  ["COCCOC(=O)N1CCN([S+](=O)([O-])c2cc(F)c(Oc3ccc(Cl)cc3)c(F)c2)C(C(=O)NO)C1 (centres undefined) [XL-784]", "low bin"],
  ["CO[C@H]1C[C@@H]2CC[C@@H](C)[C@@](O)(O2)C(=O)C(=O)N2CCCC[C@H]2C(=O)O[C@H]([C@H](C)C[C@@H]2CC[C@@H](OC(=O)C(C)(CO)CO)[C@H](OC)C2)CC(=O)[C@H](C)/C=C(\\C)[C@@H](O)[C@@H](OC)C(=O)[C@H](C)C[C@H](C)/C=C/C=C/C=C/1C [Temsirolimus]", "high bin"],
  ["C[N]1C=NC=C1[C@@](N)(C2=CC=C(Cl)C=C2)C3=CC=C4N(C)C(=O)\\C=C(\\C5=CC=CC(=C5)Cl)C4=C3 [Tipifarnib]", "low bin"],
  ["CCOc1cc(CC(=O)N[C@@H](CC(C)C)c2ccccc2N2CCCCC2)ccc1C(=O)O [Repaglinide]", "high bin"],
  ["CN[C@H]1CC[C@@H](c2ccc(Cl)c(Cl)c2)c2ccccc21 [Sertraline hydrochloride]", "low bin"],
  ["CCOC(=O)N1CCN(/[N+]([O-])=N/Oc2ccc([N+](=O)[O-])cc2[N+](=O)[O-])CC1", "mid bin"],
  ["COC(=O)/C=C/C(=O)OC [Dimethyl fumarate]", "high bin"],
  ["CC(C)n1cnc2c(NCCc3ccc(O)cc3)nc(-c3csc4ccccc34)nc21 [StemRegenin 1]", "low bin"]
]}
